Recorded melting point, one value per entry.

Below, each entry is followed by its recorded melting point result.
| MOLECULE_SMILES | MEASURE | RESULT |
| --- | --- | --- |
| CN(C)c1ccc2cc(-c3ccccc3F)c(=S)[nH]c2c1 | melting point | 251 to 253 °C |
| CN(C)c1ccc2cc(-c3ccccc3F)c(=O)[nH]c2c1 | melting point | 247 to 248 °C |

Q: Any idea what melting point was measured for `CN(C)c1ccc2cc(-c3ccccc3)c(N)nc2c1` ?
Result: 123 to 125 °C

Q: Any idea what melting point was measured for `CN(C)c1ccc2cc(-c3ccccc3F)cnc2c1` ?
Result: 142 to 144 °C

Q: Any idea what melting point was measured for `Nc1nc2ccccc2cc1-c1ccccc1F` ?
Result: 152 to 153 °C

Q: Any idea what melting point was measured for `CN(C)c1ccc2cc(-c3cccc(F)c3)c(N)nc2c1` ?
Result: 147 to 148 °C
